experiment: Toxicity liver stage against HepG2, at 10uM; type: cell-based; design: test concentration 10 uM, cell line HepG2-A16-CD81EGFP; settings: human, HepG2-A16-CD81EGFP cells; read-out: INHIBITION
assay-endpoint: cytotoxicity at 10 µM (%)

> print(dat)
                                    molecule  measurement.unit  recorded.measurement
 1  CC(C)(C)OC(=O)N1CCCC[C@H]1C(=O)NCc1nccs1                 %                 -9.39
 2  CC(C)C1CN(c2ncccc2Cl)CCC(=O)N1Cc1ccc(F)cc1 (stereo unspecified)                 %                  2.41
 3  CCN(Cc1noc(C)n1)C(=O)C(c1cccc(C)c1)N(C)C (stereo unspecified)                 %                 -1.34
 4  COc1ccc(C(=O)N2C[C@@H](O)[C@H](NCCc3ncccc3C)C2)cc1                 %                 -3.71
 5  CC(C(=O)NCCOc1ccccc1)n1cncn1 (stereo unspecified)                 %                 -6.85
 6  Cc1cccc(C(=O)N2CCCCC2c2ccc(CN(C)C)cc2)c1 (stereo unspecified)                 %                -0.909
 7  Cc1nccn1Cc1nnc(C2CCCN(Cc3cccnc3)C2)n1C (stereo unspecified)                 %                 -6.15
 8  O=C(NCc1ccco1)[C@H]1COC[C@H]2CN(Cc3ccoc3)C[C@H]21                 %                 -70.4
 9      O=C(CCc1ccncc1)Nc1ccc(OCC2CCOCC2)cc1                 %                 -2.98
10        O=C(NCCN1CCOCC1)NCc1ccccc1-n1cccn1                 %                 -6.32
11  Cc1ccsc1CN1CC2(CCN(C(=O)C3CC3)CC2)CC1C(=O)O (stereo unspecified)                 %                  3.24
12  Cc1ccsc1C(=O)N1CCC(O)(CN2CCc3ccccc3C2)C1 (stereo unspecified)                 %                 0.803
13  CCNC(=O)C(C)NC(=O)Nc1ccccc1SCC (stereo unspecified)                 %                  -7.4
14  CN1CCCC1c1ccnc(-c2ccccn2)n1 (stereo unspecified)                 %                 -5.26
15  COCc1ccc(OC)c(CNC2CCCNC2=O)c1 (stereo unspecified)                 %                  3.66
16  CN(C)C[C@@H]1CN(C2CCN(c3ccccc3Cl)CC2)C[C@@H]1CO                 %                 -10.1
17  Cc1n[nH]c2c1C(c1ccc(O)cc1)SCC(=O)N2 (stereo unspecified)                 %                  10.6
18       Cc1cc2ncc(CN(C)C)c(C3CCN(C)CC3)n2n1                 %                 -1.19
19  COCC1CN(Cc2ccoc2)Cc2cn(C)nc21 (stereo unspecified)                 %                  7.55
20    COc1ccc(OCCN(C)S(=O)(=O)c2cnn(C)c2)cc1                 %                 -2.82
21  Cc1cc(N)nc(SC2CCN(c3ccccc3F)C2=O)n1 (stereo unspecified)                 %                 -9.51
22  Cc1nn(C)c2nc(NCCN3CCCC(C(N)=O)C3)sc12 (stereo unspecified)                 %                 0.739
23  Cc1nc(C)n(CC2CCCN2Cc2nc3ccccc3c(=O)[nH]2)n1 (stereo unspecified)                 %                 -4.35
24  COCCN1CCC(Cc2cncc(-c3ccc(C(=O)O)cc3)n2)CC1                 %                 -27.6
25  O=S(=O)(N[C@H]1CC[C@H]1NC1Cc2ccccc2C1)c1cccnc1                 %                  1.24
26           CNc1nc(C(=O)NCc2cccnc2N(C)C)cs1                 %                 -7.57
27  CCC(Nc1ccc(Oc2ccc(C#N)cc2OC)cc1)C(N)=O (stereo unspecified)                 %                  65.7
28  CCCOCCN1CCC2(CC1)CC(c1ccccc1)C(=O)N2C (stereo unspecified)                 %                  38.1
29  O=C(NCC(CO)Cc1cccc(OC(F)(F)F)c1)c1cnccn1 (stereo unspecified)                 %                  7.66
30  Cc1nc(CNCC2CCCN(C(=O)OC(C)(C)C)C2)cs1 (stereo unspecified)                 %                 -18.2
31  CCCn1ncc(-c2ccnc(NC3CCSC3)n2)c1C (stereo unspecified)                 %                  2.65
